Where do the numbers come from? From the FLAb antibody collection (doi:10.1101/2023.12.08.570889).

Kd reference
target: TNFRSF9, Q07011; test: Kd (SPR)
Report as a plain number; the unit nM is understood.

[
  {
    "BINDER": "unnamed (protein) chain 1: EVQLVQSGAEVKKPGESLRISCKGSGYTFSNYWISWVRQMPGKGLEWMGKIYPGDSYTNYSPSFQGQVTISADKSISTAYLQWSSLKASDTAMYYCARGEGLFDYWGQGTLVTVSS chain 2: SYELTQPPSVSVSPGQTASITCSGDNIGDQYAHWYQQKPGQSPVLVIYQDKNRPSGIPERFSGSNSGNTATLTISGTQAMDEADYYCATYTGFGSLAVFGGGTKLTVL",
    "ASSAY READOUT": "Kd",
    "MEAS VALUE": 51
  },
  {
    "BINDER": "unnamed (protein) chain 1: EVQLVQSGAEVKKPGESLRISCKGSGYSFSTYWISWVRQMPGKGLEWMGKIYPGDSYTNYSPSFQGQVTISADKSISTAYLQWSSLKASDTAMYYCTRGTGLFDYWGQGTLVTVSS chain 2: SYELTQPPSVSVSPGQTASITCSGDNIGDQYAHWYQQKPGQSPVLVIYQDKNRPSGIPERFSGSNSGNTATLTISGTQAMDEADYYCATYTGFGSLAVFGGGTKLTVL",
    "ASSAY READOUT": "Kd",
    "MEAS VALUE": 142
  }
]

In the following, a different binder is considered.
Give the reported Kd for this binder. unnamed (protein) chain 1: EVQLVQSGAEVKKPGESLRISCKGSGYTFSSYWISWVRQMPGKGLEWMGKIYPGDSYTNYSPSFQGQVTISADKSISTAYLQWSSLKASDTAMYYCARGYGLFDYWGQGTLVTVSS chain 2: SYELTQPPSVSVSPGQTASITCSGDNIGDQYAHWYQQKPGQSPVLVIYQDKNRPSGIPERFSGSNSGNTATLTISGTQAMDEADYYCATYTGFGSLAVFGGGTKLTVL
86.1
